experiment.summary: Phase 1 clinical trial: plasma pharmacokinetics
Type: in vivo, human
assay.setup: human, plasma, oral, 40 mg, Cycle 2, Day 1; 40 mg QD; cut-off March 2024; read-out: Cmax,ss
property.measured: Cmax (ng/mL)
Answers are plain numbers, in ng/mL.

Field Cmax (entry CC1(C)Oc2cc(Cl)ccc2[C@@H]2OCC3(CCN(CCn4ccnc4)CC3)C[C@H]21 [Compound 1] ) reads 59.6

* * *

experiment.summary: Phase 1 clinical trial: plasma pharmacokinetics
Format: in vivo, human
assay.setup: human, plasma, oral, 80 mg, Cycle 1 Day 1; 80 mg, QD; cut-off April 2023; read-out: Tmax (median)
property.measured: Tmax
# include the unit after the value

Value of measured Tmax for the entry CC1(C)Oc2cc(Cl)ccc2[C@@H]2OCC3(CCN(CCn4ccnc4)CC3)C[C@H]21 [Compound 1] : 8 h

* * *

experiment.summary: Phase 1 clinical trial: plasma pharmacokinetics
Assay type: in vivo, human
assay.setup: human, plasma, oral, 120 mg, Cycle 2, Day 1; 120 mg QD; cut-off March 2024; read-out: Cmax,ss
property.measured: Cmax (ng/mL)
Answers are plain numbers, in ng/mL.

Just so you know, measured Cmax for `CC1(C)Oc2cc(Cl)ccc2[C@@H]2OCC3(CCN(CCn4ccnc4)CC3)C[C@H]21` came out at 156

* * *

experiment.summary: Phase 1 clinical trial: plasma pharmacokinetics
Assay type: in vivo, human
assay.setup: human, plasma, oral, 240 mg, Cycle 2, Day 1; 480 mg (240 mg BID); cut-off March 2024; read-out: Tmax,ss [a] median value
property.measured: Tmax (h)
Answers are plain numbers, in h.

The reported Tmax of the compound `CC1(C)Oc2cc(Cl)ccc2[C@@H]2OCC3(CCN(CCn4ccnc4)CC3)C[C@H]21` was 7

* * *

experiment.summary: Phase 1 clinical trial: plasma pharmacokinetics
Format: in vivo, human
assay.setup: human, plasma, oral, 120 mg, Cycle 1 Day 1; 120 mg, QD; cut-off April 2023; read-out: AUC0-24 (median)
property.measured: AUC(0-t) (ng·h/mL)
Give bare numbers, in ng·h/mL.

molecule `CC1(C)Oc2cc(Cl)ccc2[C@@H]2OCC3(CCN(CCn4ccnc4)CC3)C[C@H]21` , AUC(0-t) observed: 605

* * *

experiment.summary: Phase 1 clinical trial: plasma pharmacokinetics
Format: in vivo, human
assay.setup: human, plasma, oral, 40 mg, Cycle 2, Day 1; 40 mg QD; tau = 24 hours; cut-off March 2024; read-out: AUCtau,ss [b]
property.measured: AUC (ng·h/mL)
Answers are plain numbers, in ng·h/mL.

Please fill in: AUC reported for `CC1(C)Oc2cc(Cl)ccc2[C@@H]2OCC3(CCN(CCn4ccnc4)CC3)C[C@H]21` = 1170

* * *

experiment.summary: Phase 1 clinical trial: plasma pharmacokinetics
Format: in vivo, human
assay.setup: human, plasma, oral, 120 mg, Cycle 2 Day 1; 120 mg, QD; cut-off April 2023; read-out: Tmax (mean)
property.measured: Tmax

Per the records, this compound ( CC1(C)Oc2cc(Cl)ccc2[C@@H]2OCC3(CCN(CCn4ccnc4)CC3)C[C@H]21 [Compound 1] ) has Tmax equal to 6 h

* * *

experiment.summary: Phase 1 clinical trial: plasma pharmacokinetics
Type: in vivo, human
assay.setup: human, plasma, oral, 20 mg, Cycle 1 Day 1; 20 mg, QD; cut-off April 2023; read-out: AUC0-24 (median)
property.measured: AUC(0-t)

Lab note: `CC1(C)Oc2cc(Cl)ccc2[C@@H]2OCC3(CCN(CCn4ccnc4)CC3)C[C@H]21` gave AUC(0-t) of 77 ng·h/mL

* * *

experiment.summary: Phase 1 clinical trial: plasma pharmacokinetics
Type: in vivo, human
assay.setup: human, plasma, oral, 120 mg, Cycle 1, Day 1; 120 mg QD; tau = 24 hours; cut-off March 2024; read-out: AUCtau [b]
property.measured: AUC (ng·h/mL)
Answers are plain numbers, in ng·h/mL.

Lab book: AUC of `CC1(C)Oc2cc(Cl)ccc2[C@@H]2OCC3(CCN(CCn4ccnc4)CC3)C[C@H]21` noted as 577

* * *

experiment.summary: Phase 1 clinical trial: plasma pharmacokinetics
Type: in vivo, human
assay.setup: human, plasma, oral, 240 mg, Cycle 2 Day 1; 240 mg, QD; cut-off April 2023; read-out: Tmax (mean)
property.measured: Tmax
Please answer in the form of a number followed by its unit of measurement.

The reported Tmax of the molecule `CC1(C)Oc2cc(Cl)ccc2[C@@H]2OCC3(CCN(CCn4ccnc4)CC3)C[C@H]21` was 7 h

* * *

experiment.summary: Phase 1 clinical trial: plasma pharmacokinetics
Type: in vivo, human
assay.setup: human, plasma, oral, 240 mg, Cycle 2, Day 1; 240 mg QD; tau = 24 hours; cut-off March 2024; read-out: AUCtau,ss [b]
property.measured: AUC (ng·h/mL)
One number for each entry, in ng·h/mL.

GET /value?item= CC1(C)Oc2cc(Cl)ccc2[C@@H]2OCC3(CCN(CCn4ccnc4)CC3)C[C@H]21 [Compound 1] &field=AUC returns 5330

* * *

experiment.summary: Phase 1 clinical trial: plasma pharmacokinetics
Assay type: in vivo, human
assay.setup: human, plasma, oral, 240 mg, Cycle 1 Day 1; 240 mg, QD; cut-off April 2023; read-out: AUC0-24 (median)
Description: Summary statistics based on preliminary data were obtained for the pharmacokinetics of Compound 1 in patients receiving once-daily doses ranging from 20 mg to 240 mg (Table 5). The mean plasma concentration-time curves of Compound 1 in the once-daily dose groups ranging from 20 mg to 240 mg are shown in Figure 11. In this study, one cycle consists of 28 days, and Cycle 1 Day 1 refers to Day 1 of the first cycle. […] Accumulation was observed after repeated administration. […]
property.measured: AUC(0-t)

Entry under test: CC1(C)Oc2cc(Cl)ccc2[C@@H]2OCC3(CCN(CCn4ccnc4)CC3)C[C@H]21 [Compound 1] . Its AUC(0-t) was 1620 ng·h/mL

* * *

experiment.summary: Phase 1 clinical trial: plasma pharmacokinetics
Type: in vivo, human
assay.setup: human, plasma, oral, 180 mg, Cycle 1 Day 1; 180 mg, QD; cut-off April 2023; read-out: Cmax (mean)
property.measured: Cmax (ng/mL)
One number for each entry, in ng/mL.

Input `CC1(C)Oc2cc(Cl)ccc2[C@@H]2OCC3(CCN(CCn4ccnc4)CC3)C[C@H]21` . Output Cmax: 101

* * *

experiment.summary: Phase 1 clinical trial: plasma pharmacokinetics
Format: in vivo, human
assay.setup: human, plasma, oral, 40 mg, Cycle 1 Day 1; 40 mg, QD; cut-off April 2023; read-out: AUC0-24 (mean)
property.measured: AUC(0-t)

// recorded AUC(0-t) for CC1(C)Oc2cc(Cl)ccc2[C@@H]2OCC3(CCN(CCn4ccnc4)CC3)C[C@H]21 [Compound 1] : 132 ng·h/mL

* * *

experiment.summary: Phase 1 clinical trial: plasma pharmacokinetics
Format: in vivo, human
assay.setup: human, plasma, oral, Cycle 1 Day 1; 20 mg to 240 mg once daily; cut-off April 2023; read-out: geometric mean of Cmax, range over all dose groups
property.measured: Cmax

Record summary for `CC1(C)Oc2cc(Cl)ccc2[C@@H]2OCC3(CCN(CCn4ccnc4)CC3)C[C@H]21` : reported Cmax = 4 to 145 ng/mL

* * *

experiment.summary: Phase 1 clinical trial: plasma pharmacokinetics
Type: in vivo, human
assay.setup: human, plasma, oral, 120 mg, 120 mg QD; cut-off March 2024; read-out: Effective T1/2 (converted)
property.measured: half-life (h)
Give bare numbers, in h.

The reported value for `CC1(C)Oc2cc(Cl)ccc2[C@@H]2OCC3(CCN(CCn4ccnc4)CC3)C[C@H]21` in terms of half-life is 67.2

* * *

experiment.summary: Phase 1 clinical trial: plasma pharmacokinetics
Assay type: in vivo, human
assay.setup: human, plasma, oral, 80 mg, Cycle 1, Day 1; 80 mg QD; tau = 24 hours; cut-off March 2024; read-out: AUCtau [b]
property.measured: AUC (ng·h/mL)
One number for each entry, in ng·h/mL.

GET /value?item= `CC1(C)Oc2cc(Cl)ccc2[C@@H]2OCC3(CCN(CCn4ccnc4)CC3)C[C@H]21` &field=AUC returns 264
